# Protocol description: in vitro
# Experimental parameters: human, plasma
Structures can show the parent of a compound that is named as a salt.

Molecule | half-life
CC(C)[C@H](N)C(=O)OC[C@@H]1O[C@H](n2ccc(N)nc2=O)C[C@H]1OC(=O)[C@@H](N)C(C)C [3'5'-dival-L-dC, hydrochloride] | ~39 min

----------
# Protocol description: in vivo
# Design: species or system cynomologus monkeys (macaca fascicularis)
# Experimental parameters: cynomolgus monkey, po, 10 mg/kg, 8 h

Chemical string | concentration, nM
O=c1ccn([C@@H]2C[C@@H](O)[C@H](CO)O2)c(=O)[nH]1 | 390

----------
# Protocol description: in vivo
# Experimental parameters: rat, po
Where a name gives a salt, the structure may show the parent alone.

Compound | NOAEL at 360 h
CC(C)[C@H](N)C(=O)OC[C@@H]1O[C@H](n2ccc(N)nc2=O)C[C@H]1OC(=O)[C@@H](N)C(C)C [3'5'-dival-L-dC, hydrochloride] | 2000 mg/kg
